# system.under.test: NONO C145 (Homo sapiens, UniProt Q15233)
# Sequence (Q15233 whole entry): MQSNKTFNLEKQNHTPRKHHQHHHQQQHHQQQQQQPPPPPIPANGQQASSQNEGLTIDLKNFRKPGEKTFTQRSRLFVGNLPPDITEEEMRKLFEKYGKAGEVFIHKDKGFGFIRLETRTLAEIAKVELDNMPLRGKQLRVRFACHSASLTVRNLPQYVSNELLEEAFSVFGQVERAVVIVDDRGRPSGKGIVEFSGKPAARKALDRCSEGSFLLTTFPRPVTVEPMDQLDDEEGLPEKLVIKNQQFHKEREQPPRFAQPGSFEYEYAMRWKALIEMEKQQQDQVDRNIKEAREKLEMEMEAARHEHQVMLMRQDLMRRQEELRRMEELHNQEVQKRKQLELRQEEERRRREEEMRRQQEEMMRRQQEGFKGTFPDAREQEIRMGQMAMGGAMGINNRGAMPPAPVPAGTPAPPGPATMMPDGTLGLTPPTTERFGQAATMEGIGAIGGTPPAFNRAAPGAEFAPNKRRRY
reported.metric: IC50 (µM)
Give the value, in units of µM, as a plain number.

In plain terms, COc1ccc(CNC(=O)[C@H]2CN(C(=O)CCl)CCN2S(=O)(=O)c2ccc(OC)cc2)cc1 [(R)-SKBG-1] has a documented IC50 of 5.7
